Biological target: Luciferin 4-monooxygenase (Photinus pyralis) (UniProt P08659)
Sequence (P08659 whole entry, looked up): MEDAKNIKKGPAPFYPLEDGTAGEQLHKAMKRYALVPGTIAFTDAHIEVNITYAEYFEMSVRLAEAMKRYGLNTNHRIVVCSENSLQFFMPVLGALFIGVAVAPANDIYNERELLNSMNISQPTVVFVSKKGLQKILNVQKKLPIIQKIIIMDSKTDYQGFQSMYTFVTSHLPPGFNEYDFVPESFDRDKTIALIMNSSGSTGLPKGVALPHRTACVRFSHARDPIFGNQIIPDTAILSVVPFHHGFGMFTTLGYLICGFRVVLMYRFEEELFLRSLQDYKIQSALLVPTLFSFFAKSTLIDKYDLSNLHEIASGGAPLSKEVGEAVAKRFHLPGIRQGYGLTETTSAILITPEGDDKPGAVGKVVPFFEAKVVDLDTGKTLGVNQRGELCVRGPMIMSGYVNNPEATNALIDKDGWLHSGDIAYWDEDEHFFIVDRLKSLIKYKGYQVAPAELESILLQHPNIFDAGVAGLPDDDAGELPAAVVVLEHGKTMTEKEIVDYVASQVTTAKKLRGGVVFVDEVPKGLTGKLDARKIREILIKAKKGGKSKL
Experiment: firefly luciferase enzyme inhibitors, primary screen, biochemical, luminescence, purified enzyme, 2006 set (AID 1141);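 also: cell-free assay with purified firefly luciferase at 100 ng per well in PBS; test concentration not given here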
Details: SteadyGlo luminescence, 30 min, called active from +8 up or from −8 down
Active and inactive are the calls of the source.
API: response.call in Yes (active), No (inactive)

Dear colleague, could you share the recorded outcome for C[N+](C)(C)CCCC[C@@H]1NC(=O)[C@H]2C[C@@H](C(=O)NCCCCCCNC(=O)CS)[C@@H](c3cccc(OCCO)c3)N2C1=O when you have a moment?
No

Dear colleague, could you share the recorded outcome for Cc1ccc(S[C@]2(C(=O)NCCCN(C)C)CC(=O)N(Cc3cc(C(F)(F)F)cc(C(F)(F)F)c3)[C@@H]2c2ccc(CO)cc2)cc1 when you have a moment?
No

Dear colleague, could you share the recorded outcome for CN(C)CCCCCCNC(=O)[C@H]1C[C@H]2C(=O)N[C@@H](CCCCN)C(=O)N2[C@H]1c1cccc(OCCO)c1 when you have a moment?
No

Dear colleague, could you share the recorded outcome for [N-]=[N+]=Nc1ccccc1[C@@H]1OC(c2ccc(OCCCO)cc2)=N[C@]1(CCS(=O)(=O)c1ccccc1)C(N)=O when you have a moment?
Yes

Dear colleague, could you share the recorded outcome for C=C(C(=O)CC[C@@H](OC(=O)c1cccnc1)c1ccccc1OCCO)C(C)C when you have a moment?
No

Dear colleague, could you share the recorded outcome for O=C1NC(=O)C2C1C=CC(C(O)c1cccs1)N2Nc1ccc(Cl)cc1Cl (stereo not drawn) when you have a moment?
No

Dear colleague, could you share the recorded outcome for C[C@H]1NC(=O)[C@@]23C(=O)N[C@@H](Cc4ccccc4)C2[C@H](C)[C@@]2(C)O[C@H]2C3/C=C/C/C=C\CNC(=O)[C@@H]2CCCN2C1=O (stereo partly drawn) when you have a moment?
No

Dear colleague, could you share the recorded outcome for COC(=O)[C@@]1(Cc2ccc(OC)cc2)[C@H]2c3cc(C(=O)N(C)C)n(C)c3C[C@H]2CN1C(=O)c1ccccc1 when you have a moment?
No
